- Organism: Rattus norvegicus
- Assay Notes: Open TG-GATES - Regimen: Daily Repeat
- Assay type: toxicity, organism-based, Sprague-Dawley
- Parameters: regimen Daily Repeat, gender Male, age 6 weeks
- Measurement Conditions: in vivo, po, 0 mg/kg, 72 h, tissue Plasma, route gavage, dose level Control, time 3 day

# Compound, A/G
measured = [
    ("Brc1ccccc1", 0.9),
    ("CN/C(=N/CCSCc1nc[nH]c1C)NC#N", 1.7),
    ("Nc1c2c(nc3ccccc13)CCCC2", 1.3),
    ("CN(C)CCC(c1ccc(Cl)cc1)c1ccccn1 (stereo not given)", 0.9),
    ("O=C(OC[C@H]1O[C@@H](OC(=O)c2cc(O)c(O)c(OC(=O)c3cc(O)c(O)c(O)c3)c2)[C@H](OC(=O)c2cc(O)c(O)c(OC(=O)c3cc(O)c(O)c(O)c3)c2)[C@@H](OC(=O)c2cc(O)c(O)c(OC(=O)c3cc(O)c(O)c(O)c3)c2)[C@@H]1OC(=O)c1cc(O)c(O)c(OC(=O)c2cc(O)c(O)c(O)c2)c1)c1cc(O)c(O)c(OC(=O)c2cc(O)c(O)c(O)c2)c1", 2.1),
]
